Exercise: state measured kon for each of the binders provided.
Target: T1, human beta CGRP (SEQ ID NO: 81) (human, not fully specified)
T1 construct: also called human βCGRP; hβCGRP
T1 peptide: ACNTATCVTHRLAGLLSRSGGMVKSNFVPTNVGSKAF
Assay: SPR, 37 C, mutein captured, CGRP analyte
Text: The Biotin CAPture Kit (GE Healthcare) was used to immobilize biotinylated lipocalin muteins to a chip surface. Muteins were biotinylated using standard NHS chemistry. […] The data were double-referenced by subtraction of the corresponding signals measured for the control channel (loaded with Biotin CAPture reagent only) and by subtraction of buffer injections from the binding responses. […]
Enter your answer as a number in M⁻¹ s⁻¹; do not include the unit.

q: Tell me the measured kon of lipocalin mutein SEQ ID NO: 4 (designed binder, biotinylated by NHS chemistry for capture in SPR) QDSTSDLIPAPPLSKVPLQQNFQDNQFHGKWYVVGWAGNTLLREDKDPTKMQATIYELKEDKSYNVTWVYFSEKKCNYHIETFVPGSQPGEFTLGTIKSYPGETSILVRVVSTNYNQHAMVFFKGVSQNREIFEITLYGRTKELTSELKENFIRFSKSLGLPENHIVFPVPIDQCIDGSAWSHPQFEK , please.
a: 5.24e+06

q: Tell me the measured kon of lipocalin mutein SEQ ID NO: 20 (designed binder, biotinylated by NHS chemistry for capture in SPR) QDSTSDLIPAPPLSKVPLQQNFQDNQFHGKWYVVGRAGNDTLRKDKDPEKMEATIYELKEDKSYNVTDVGFVQKKCMYVIHTFVPGSQPGEFTLGNIKSYPGVTSALVRVVSTNYNQHAMVFVKLVKQNRELFEITLYGRTKELTSELKENFIRFSKSLGLPENHIVFPVPIDQCIDGSAWSHPQFEK , please.
a: 2.18e+06

q: Tell me the measured kon of lipocalin mutein SEQ ID NO: 15 (designed binder, biotinylated by NHS chemistry for capture in SPR) QDSTSDLIPAPPLSKVPLQQNFQDNQFHGKWYVVGRAANDRLREDKDPEKMEATIYELKEDKSYNVTDVGFSRKKCIYVIHTFVPGSQPGEFTLGNIKSYPGTTSGLVRVVSTNYNQHAMVFFKVVGQNRESFEITLYGRTKELTSELKENFIRFSKSLGLPENHIVFPVPIDQCIDGSAWSHPQFEK , please.
a: 1.53e+07

Data provenance: patent US20190338002A1
